- MEASUREMENT NOTES: ABTS radical scavenging assay
- STUDY CONDITIONS: mean ± SD (n = 3); NA = not active (<50% radical scavenging activity at the highest testing concentration of 200 μM); read-out: ABTS free radical scavenging activity IC50
pIC50: −log10 of the molar value.
MEASURED PROPERTY: pIC50

The following compounds have reported results that may help.
# COMPOUND, pIC50
rows = [
    ("COc1cc([C@H](O)[C@H](CO)Oc2ccc(CCCO)cc2OC)ccc1O [Compound 11b]", 4.83),
    ("COc1cc(C2c3c(cc(OC)c(O)c3OC)CC(CO)C2CO)cc(OC)c1O (stereo not drawn) [Compound 16b, polystachyol]", 4.58),
    ("COC1CC2C(O)CC(O)(COC(=O)C=Cc3ccc(O)cc3)C2C(OC)O1 (stereo not drawn) [Compound 5]", 4.49),
    ("COc1cc(C2OC(c3ccc(O)c(OC)c3)C(CO)C2CO)ccc1O (stereo not drawn) [Compound 17b, neo-olivil]", 5.11),
]

(1) COc1cc([C@H]2Oc3c(OC)cc(CCCO)cc3[C@@H]2CO)cc(OC)c1O [Compound 15a]
(2) COc1cc(CCCO)ccc1O[C@H](CO)[C@@H](O)c1cc(OC)c(O)c(OC)c1 [Compound 9b]
(3) CO[C@H]1C[C@@H]2[C@H]([C@H](OC)O1)[C@@](O)(COC(=O)/C=C\c1ccc(O)cc1)C[C@H]2O [Compound 6]
Asked: Hello, I need these entries ordered by pIC50, highest reading first. Thanks! Response format: the labels, sorted as the prompt asks.
Given back: 2, 1, 3
(2: 5.00, 1: 4.76, 3: 4.55)

----------
- Tested on: NO production in RAW264.7 macrophages
- MEASUREMENT NOTES: NO production inhibitory assay, lipopolysaccharide-induced macrophages
- Type: cell-based
- STUDY CONDITIONS: Mus musculus, lipopolysaccharide-induced murine macrophages, read-out: NO production inhibition IC50
MEASURED PROPERTY: IC50 (µM)
Kindly answer with a numeric value in µM, unit omitted.

Short answer for COc1cc([C@@H]2Oc3c(OC)cc(CCCO)cc3[C@H]2CO)ccc1O [Compound 14a, dihydrodehydrodiconiferyl alcohol] : IC50 was 52.2

----------
- MEASUREMENT NOTES: DPPH radical scavenging assay
- STUDY CONDITIONS: mean ± SD (n = 3); NA = not active (<50% radical scavenging activity at the highest testing concentration of 200 μM); read-out: DPPH free radical scavenging activity IC50
pIC50: −log10 of the molar value.
MEASURED PROPERTY: pIC50

The following compounds have reported results that may help.
# COMPOUND, MEASURED PROPERTY, NUMERIC READOUT
measured = [
    ("COc1cc(C2OC(c3cc(OC)c(O)c(OC)c3)C(CO)C2CO)cc(OC)c1O (centres unmarked) [Compound 18b, icariol A2]", "pIC50", 4.75),
    ("COc1cc([C@H]2Oc3c(O)cc(CCCO)cc3[C@@H]2CO)ccc1O [Compound 12a, cedrusin]", "pIC50", 4.51),
]

(P) COc1cc([C@H]2Oc3c(OC)cc(CCCO)cc3[C@@H]2CO)cc(OC)c1O [Compound 15a]
(Q) COc1cc([C@@H](O)[C@@H](CO)Oc2ccc(CCCO)cc2OC)ccc1O [Compound 11a]
(R) O=C1O[C@H]([C@@H](O)CO)C(O)=C1O [Ascorbic acid, ascorbic acid, reference compound]
Asked: Hello, I need these entries ordered by pIC50, highest reading first. Thanks! Response format: the labels, sorted as the prompt asks.
Given back: R, P, Q

(A) COc1cc([C@H](O)[C@H](CO)Oc2ccc(CCCO)cc2OC)ccc1O [Compound 11b]
(B) COc1cc(C2c3c(cc(OC)c(O)c3OC)CC(CO)C2CO)cc(OC)c1O (centres unmarked) [Compound 16a, polystachyol]
Asked: Form: Entry with minimum pIC50 (choose one): A / B Mark your answer with the label of the selected entry.
Given back: A
